Hello, the source for this data is ChEMBL document CHEMBL4765285, in case you need it.

Assay: Oral bioavailability in ICR mouse at 10 mg/kg measured up to 1440 mins by LC-MS/MS analysis
Assay type: ADME, organism-based
Details: in vivo
MEASURED QUANTITY: bioavailability (%)
The answer is to be given in %; state only the numeric part.

Sample records with bioavailability:
{"STRUCTURE AS SMILES": "Cl.O=C1Nc2ccc(F)cc2/C1=C1/Nc2ccc(F)cc2/C1=N\\OCCN1CCNCC1", "MEASURED QUANTITY": "bioavailability", "DISPLAY UNIT": "%", "NUMERIC VALUE": 16.7}
{"STRUCTURE AS SMILES": "Cl.NCCO/N=C1/C(=C2/C(=O)Nc3ccc([N+](=O)[O-])cc32)Nc2ccc(O)cc21", "MEASURED QUANTITY": "bioavailability", "DISPLAY UNIT": "%", "NUMERIC VALUE": 0}
{"STRUCTURE AS SMILES": "COC(=O)c1ccc2c(c1)/C(=C1/Nc3ccccc3/C1=N\\OCCN1CCNCC1)C(=O)N2", "MEASURED QUANTITY": "bioavailability", "DISPLAY UNIT": "%", "NUMERIC VALUE": 1.43}
{"STRUCTURE AS SMILES": "Cl.O=C1Nc2ccc(F)cc2/C1=C1/Nc2ccccc2/C1=N\\OCCN1CCNCC1", "MEASURED QUANTITY": "bioavailability", "DISPLAY UNIT": "%", "NUMERIC VALUE": 42.6}
{"STRUCTURE AS SMILES": "Cl.O=C1Nc2ccc([N+](=O)[O-])cc2/C1=C1/Nc2ccccc2/C1=N\\OCCN1CCNCC1", "MEASURED QUANTITY": "bioavailability", "DISPLAY UNIT": "%", "NUMERIC VALUE": 1.33}
{"STRUCTURE AS SMILES": "Cl.O=C1Nc2ccccc2/C1=C1/Nc2ccccc2/C1=N\\OCCN1CCNCC1", "MEASURED QUANTITY": "bioavailability", "DISPLAY UNIT": "%", "NUMERIC VALUE": 51}
{"STRUCTURE AS SMILES": "Cl.O=C1Nc2ccc(F)cc2/C1=C1/Nc2ccc(F)cc2/C1=N\\OCCNC1CCNCC1", "MEASURED QUANTITY": "bioavailability", "DISPLAY UNIT": "%", "NUMERIC VALUE": 15.3}

Read the next record carefully.
QUERY: Return reported bioavailability; argument: Cl.O=C1Nc2ccc([N+](=O)[O-])cc2/C1=C1/Nc2ccc(O)cc2/C1=N\OCCN1CCNCC1
RESULT: 0
